target: T1, HLA-DR4 (DRB1*0401), purified (human); test: competition on purified HLA-DR (DRB1*0401) against biotinylated HA 306-318 (30 nM, pH 6); fluorescence assay
T1 construct: mature
quantity kind: IC50 (nM)
Answers are plain numbers, in nM.

ACYEFLWGPRALVETS [peptide MAGE-3 267-282 (ACYEFLWGPRALVETS)] has a reported IC50 of 730

Sourced from patent US20040077045A1
